Reference source: ChEMBL document CHEMBL1961873

molecular target: Casein kinase I isoform gamma-2 (Homo sapiens); details: at 0.1 µM;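 note: values are mean inhibition figures reported as part of the GSK PKIS dataset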
Reported inhibition by item:
Answer format: numeric, % implied, no suffix.

Study these solved cases before continuing.
>>> numeric_result("CC(C)COC(=O)c1ccc2c(c1)/C(=C/Nc1ccc(S(N)(=O)=O)cc1)C(=O)N2")
-1.09
>>> numeric_result("Fc1ccc(-c2nn3ncccc3c2-c2ccnc(Nc3ccc4c(c3)OCCO4)n2)cc1")
11.1
>>> numeric_result("CCn1c(-c2nonc2N)nc2c(C#CC(C)(C)O)nc(OC[C@H](N)c3ccccc3)cc21")
1.71

Kindly consider the entry below.
Measured inhibition, `COc1ccc(CNC(=O)c2ccc(-c3cc(-c4nnc(C)o4)ccc3C)cc2)cc1` : 1.05

----------
biological target: Interleukin-1 receptor-associated kinase 4 (Homo sapiens) (UniProt Q9NWZ3); details: at 0.1 µM;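 note: reported figure is the mean inhibition of IRAK4 activity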
Sequence (Q9NWZ3 whole entry): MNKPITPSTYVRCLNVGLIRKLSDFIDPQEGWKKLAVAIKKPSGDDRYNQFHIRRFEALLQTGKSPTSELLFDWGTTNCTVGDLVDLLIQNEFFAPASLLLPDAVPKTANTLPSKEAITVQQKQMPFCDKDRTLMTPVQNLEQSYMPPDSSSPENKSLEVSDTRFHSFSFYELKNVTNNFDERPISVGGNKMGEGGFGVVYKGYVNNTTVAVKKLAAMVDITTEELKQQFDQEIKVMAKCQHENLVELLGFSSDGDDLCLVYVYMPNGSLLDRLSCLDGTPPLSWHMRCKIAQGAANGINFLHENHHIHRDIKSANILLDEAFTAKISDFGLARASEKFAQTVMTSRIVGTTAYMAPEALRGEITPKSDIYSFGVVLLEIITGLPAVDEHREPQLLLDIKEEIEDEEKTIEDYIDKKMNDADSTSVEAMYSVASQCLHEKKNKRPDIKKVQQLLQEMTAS
REPORTED_METRIC: inhibition (%)
Express the result in % but write the number alone.

>>> numeric_result("Cc1ccc2c(-c3ccnc(Nc4ccccc4)n3)c(-c3ccc(F)cc3)nn2n1")
-2.94
>>> numeric_result("CN1CCC(n2cnc(-c3ccc(F)cc3)c2-c2ccnc(N)n2)CC1")
3.88
>>> numeric_result("COc1cc2ncn(-c3cc(OCc4ccccc4C(F)(F)F)c(C(=O)N(C)C)s3)c2cc1OC")
2.2
>>> numeric_result("CCn1c(-c2nonc2N)nc2ccccc21")
-0.13
>>> numeric_result("NC(=O)c1sc(-n2cnc3ccc(C(F)(F)F)cc32)cc1OCc1ccccc1Br")
0.72
>>> numeric_result("CC1=C(C(=O)Nc2cc(Cl)c3[nH]ncc3c2)C(c2ccc(C(F)(F)F)cc2)CC(=O)N1 (stereo unspecified)")
2.04
>>> numeric_result("Fc1ccc(-c2cc(-c3c[nH]nc3-c3ccccn3)ccn2)cc1")
2.71
>>> numeric_result("CCc1nn2ncccc2c1-c1ccnc(NC2CC2)n1")
1.42

Sample `COc1ccc(-c2oc3ncnc(N)c3c2-c2ccc(NC(=O)Nc3cc(C(F)(F)F)ccc3F)cc2)cc1` ; inhibition observed: -1.07

Briefly, inhibition measured for `N#Cc1c(NC(=O)c2ccc(F)cc2)sc2c1CCCC2` : 1.78

In plain terms, `NS(=O)(=O)c1ccc(N/N=C2\C(=O)Nc3ccc4ncccc4c32)cc1` has a documented inhibition of 2.94

# molecule `COc1ccc(-c2nn3ncccc3c2-c2ccnc(Nc3ccc4c(c3)OCCO4)n2)cc1` ; its inhibition = -0.42

`COC(=O)c1sc(-n2cnc3cc(OC)c(OC)cc32)cc1OCc1ccccc1C(F)(F)F` has a reported inhibition of -0.1

# inhibition (molecule: `Nc1nc(-c2cccc(Cl)c2)c(-c2ccc3ncccc3n2)s1` ) is 3.86

Lookup result for `CCCN(CCS(C)(=O)=O)Cc1ccc(-c2ccc3ncnc(Nc4ccc(OCc5cccc(F)c5)c(Cl)c4)c3c2)o1` ; measured inhibition: -3.12

Notebook: `CCn1cc(-c2ccnc3[nH]ccc23)c(-c2cccc(NC(=O)Nc3ccc(OCc4ccccc4)cc3)c2)n1` , inhibition read as -0.99

Form: molecule = `CCN(CC)S(=O)(=O)c1ccc(OC)c(Nc2ncc(-c3ccccc3)o2)c1` ; inhibition = 0.75

GET /value?item= `CCn1c(-c2nonc2N)nc2c(C#CC(C)(C)O)ncc(OC3CCNCC3)c21` &field=inhibition returns 2.02

Record `Cc1cccc2c1NC(=O)/C2=N\Nc1ccc(S(N)(=O)=O)cc1` , field inhibition: -0.09

Just so you know, measured inhibition for `Fc1ccc(-c2nn3ccccc3c2-c2ccncc2)cc1` came out at 2.69

According to the records, this molecule `COc1cccc(-n2ncc3c(N/N=C/c4ccc(F)cc4)ncnc32)c1` displays inhibition of -3.94

----------
molecular target: Casein kinase II subunit alpha (Homo sapiens); conditions: at 0.1 µM
Description: GSK_PKIS: CK2 mean inhibition at 0.1 uM [Nanosyn]
REPORTED_METRIC: inhibition (%)
Response body: numeric value in %, unit text excluded.

See these solved cases before continuing.
>>> numeric_result("COC(=O)c1sc(-n2cnc3cc(OC)c(OC)cc32)cc1OCc1ccccc1C(F)(F)F")
0.66
>>> numeric_result("FC(F)(F)c1cccc(-c2nn3ncccc3c2-c2ccnc(Nc3ccc4c(c3)OCCO4)n2)c1")
0.21
>>> numeric_result("CNC(=O)c1cc(-c2ccc(F)cc2)cc(-c2ccc(S(=O)(=O)N3CCCC3)cc2)c1N")
15.5
>>> numeric_result("CCc1nn2ncccc2c1-c1ccnc(NC2CC2)n1")
1.46

Next item in the queue.
Kindly note the recorded inhibition for `Cc1cccc2c1NC(=O)/C2=N\Nc1ccc(S(N)(=O)=O)cc1` , which is -0.53

----------
target: 5'-AMP-activated protein kinase catalytic subunit alpha-1 (Homo sapiens); conditions: at 0.1 µM;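 note: enzyme tested as the AMPK alpha1 beta1 gamma1 complex, values reported as mean percent inhibition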
Description: GSK_PKIS: AMPKA1 (A1B1G1) mean inhibition at 0.1 uM [Nanosyn]
Kind request: treat 1% as inclusive, so inhibition at 1% or higher is Condition met, anything lower is Condition not met.

>>> assigned_label("COc1ccc2c(-c3ccnc(Nc4cccc(OC(F)(F)F)c4)n3)cnn2n1")
"Condition met"

Q: Hello, I need to know if `CCCN1CCC(c2ccc(Nc3nc(Nc4cc(F)ccc4C(N)=O)c4cc[nH]c4n3)c(OC)c2)CC1` has measured inhibition not below 1%. Thanks!
Ans: Condition met

Q: Is inhibition for `CN1CCC(n2cnc(-c3ccc(F)cc3)c2-c2ccnc(N)n2)CC1` at or above 1%?
Ans: Condition met

----------
Overview of reported inhibition across a group of compounds:
target: Serine/threonine-protein kinase Nek7 (Homo sapiens); details: at 1 µM;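 note: reported values are mean inhibition of NEK7 from the GSK PKIS kinase screening panel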
// note: answer is a bare numeric in %

These recorded examples may help you get a feel for the data.
>>> numeric_result("CCn1cc(-c2ccnc3[nH]ccc23)c(-c2cccc(NC(=O)Nc3ccc(OCc4ccccc4)cc3)c2)n1")
-5.21
>>> numeric_result("COc1cc(/C=N/Nc2ncnc3[nH]ncc23)ccc1O")
5.51
>>> numeric_result("CN1CCC(n2cnc(-c3ccc(F)cc3)c2-c2ccnc(Nc3ccccc3)n2)CC1")
2.65

Per the records, this compound ( `CCNC(=O)O[C@H]1CN[C@H](C#Cc2cc3ncnc(Nc4ccc(OCc5cccc(F)c5)c(Cl)c4)c3s2)C1` ) has inhibition equal to 3.51

Form: compound = `CCn1c(-c2nonc2N)nc2c(C#CC(C)(C)O)nc(OC[C@H](N)c3ccccc3)cc21` ; inhibition = 3.72

Note to self: inhibition recorded for `CCN(CC)S(=O)(=O)c1ccc(OC)c(Nc2ncc(-c3ccccc3)o2)c1` was -0.03

Data point: `CCOc1ccc2c(-c3ccnc(Nc4cccc(C(F)(F)F)c4)n3)cnn2n1` ; inhibition = 0.03

Please fill in: inhibition reported for `CCn1c(-c2nonc2N)nc2ccccc21` = 4.22

Lab book: inhibition of `N#Cc1c(NC(=O)c2ccc(F)cc2)sc2c1CCCC2` noted as 2.46

Entry `[O-][S+]1CCN(Cc2ccc(-c3ccc4ncnc(Nc5ccc(OCc6cccc(F)c6)c(Cl)c5)c4c3)o2)CC1` — recorded inhibition = 8.43

For `COc1ccc(-c2oc3ncnc(N)c3c2-c2ccc(NC(=O)Nc3cc(C(F)(F)F)ccc3F)cc2)cc1` the compound record lists inhibition as -1.9

Entry `CS(=O)(=O)CCNCc1coc(-c2ccc3ncnc(Nc4ccc(OCc5ccccc5)cc4)c3c2)c1` , inhibition reported as 3.98

According to the records, this compound `CNC(=O)c1cccc(C#Cc2cncnc2Nc2ccc(OCc3cccc(F)c3)c(Cl)c2)c1` displays inhibition of 0.48

Value of measured inhibition for the entry `NS(=O)(=O)c1ccc(N/N=C2\C(=O)Nc3ccc4ncccc4c32)cc1` : 7.69

inhibition measured on `Nc1nc(-c2ccc(F)cc2)c(-c2ccc3ncccc3n2)s1` = 3.14

Memo: `Fc1ccc(-c2nn3ccccc3c2-c2ccncc2)cc1` , reported inhibition: 2.56

Briefly, inhibition measured for `NC(=O)c1sc(-n2cnc3ccc(C(F)(F)F)cc32)cc1OCc1ccccc1Br` : 3.81

----------
Entries and their inhibition
target: Protein kinase C eta type (Homo sapiens) (UniProt P24723); conditions: at 0.1 µM;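 note: values are the mean percent inhibition of PKC-eta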
Sequence (P24723 whole entry): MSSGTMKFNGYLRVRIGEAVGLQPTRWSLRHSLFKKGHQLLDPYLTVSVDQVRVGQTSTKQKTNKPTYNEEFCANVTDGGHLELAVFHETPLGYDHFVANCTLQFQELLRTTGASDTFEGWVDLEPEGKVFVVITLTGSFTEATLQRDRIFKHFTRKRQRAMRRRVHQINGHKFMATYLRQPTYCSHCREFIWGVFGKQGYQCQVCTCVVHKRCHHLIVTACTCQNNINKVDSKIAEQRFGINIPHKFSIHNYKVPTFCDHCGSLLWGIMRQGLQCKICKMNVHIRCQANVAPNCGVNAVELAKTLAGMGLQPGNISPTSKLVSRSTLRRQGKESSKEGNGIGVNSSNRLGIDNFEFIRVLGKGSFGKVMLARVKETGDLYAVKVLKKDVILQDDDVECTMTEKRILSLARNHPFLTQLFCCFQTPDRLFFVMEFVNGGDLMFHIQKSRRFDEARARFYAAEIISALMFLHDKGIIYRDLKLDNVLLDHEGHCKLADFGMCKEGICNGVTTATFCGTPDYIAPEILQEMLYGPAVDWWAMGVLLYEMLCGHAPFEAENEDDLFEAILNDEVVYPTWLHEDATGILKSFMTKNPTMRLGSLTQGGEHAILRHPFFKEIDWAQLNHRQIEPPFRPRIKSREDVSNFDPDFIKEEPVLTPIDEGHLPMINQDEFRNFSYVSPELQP
Expressed in %, but write only the number.

Solved cases below.
>>> numeric_result("CCN(CC)S(=O)(=O)c1ccc(OC)c(Nc2ncc(-c3ccccc3)o2)c1")
3.12
>>> numeric_result("CCc1nn2ncccc2c1-c1ccnc(NC2CC2)n1")
0.47
>>> numeric_result("CCNC(=O)O[C@H]1CN[C@H](C#Cc2cc3ncnc(Nc4ccc(OCc5cccc(F)c5)c(Cl)c4)c3s2)C1")
3.54

Now turn to the next compound.
Per the records, this compound ( `CC(C)COC(=O)c1ccc2c(c1)/C(=C/Nc1ccc(S(N)(=O)=O)cc1)C(=O)N2` ) has inhibition equal to -1.68

----------
target: Calcium/calmodulin-dependent protein kinase type 1D (Homo sapiens) (UniProt Q8IU85); details: at 0.1 µM;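 note: reported figure is the mean inhibition of CAMK1D, from the GSK PKIS screening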
Sequence (Q8IU85 whole entry, looked up): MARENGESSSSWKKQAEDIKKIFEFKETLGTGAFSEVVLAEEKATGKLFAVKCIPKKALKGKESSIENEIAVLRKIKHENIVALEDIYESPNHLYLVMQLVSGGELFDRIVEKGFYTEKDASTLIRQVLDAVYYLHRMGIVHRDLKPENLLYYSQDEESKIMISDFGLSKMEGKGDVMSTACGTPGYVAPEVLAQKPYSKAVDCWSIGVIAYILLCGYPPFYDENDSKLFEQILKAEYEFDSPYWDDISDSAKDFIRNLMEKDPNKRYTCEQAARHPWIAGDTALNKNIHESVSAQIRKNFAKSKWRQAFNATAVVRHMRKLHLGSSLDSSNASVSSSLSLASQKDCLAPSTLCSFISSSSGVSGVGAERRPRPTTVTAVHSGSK
REPORTED_METRIC: inhibition (%)
Express it in %; write the number only.

Use these answered entries as a reference point.
>>> numeric_result("COC(=O)Nc1nc2ccc(S(=O)(=O)c3ccc(NC(=O)Nc4cc(C(F)(F)F)ccc4F)cc3)cc2[nH]1")
0.42
>>> numeric_result("Nc1nc(-c2ccc(F)cc2)c(-c2ccc3ncccc3n2)s1")
0.67
>>> numeric_result("NS(=O)(=O)c1ccc(Nc2ncc(-c3ccccc3)o2)cc1")
0.42
>>> numeric_result("CCc1nn2ncccc2c1-c1ccnc(NC2CC2)n1")
1.12

compound `CN1CCC(n2cnc(-c3ccc(F)cc3)c2-c2ccnc(Nc3ccccc3)n2)CC1` , inhibition observed: 0.81

So for `c1ccc(-c2nc3n(c2-c2ccc4c(c2)OCO4)CCC3)nc1` , the logged inhibition turned out to be 0.16

The compound `Nc1ncc(-c2cccc(S(N)(=O)=O)c2)c2scc(-c3ccc(F)c(Cl)c3)c12` showed inhibition equal to 1.24
